- protocol_notes: Plasma concentration in mouse at 20 mg/kg, po administered through gavage after 1 hr by LC-MS/MS analysis
- Type: ADME, organism-based
measured_attribute: concentration at 1 h (µg/mL)
# unit: µg/mL | format: bare number

Annotate the compound `CC(C)[C@@]12C[C@@H](NC(=O)CO)[C@@](C)(O1)[C@@H]1CC[C@@H](C)[C@H]1[C@@H]2OC(=O)/C=C/c1ccccc1` with its measured concentration at 1 h.
0.0732

###

- System: A498
- protocol_notes: Growth inhibition of human A498 cells assessed as cell growth at 10 uM incubated for 48 hrs by sulforhodamine B assay relative to control
- Assay type: functional
- condition_set: A498, 48 h, read-out: Activity
measured_attribute: growth at 10 µM (%)
# unit: % | format: bare number

[
  {
    "smiles_repr": "C/C(=C\\C(=O)O[C@H]1[C@@H]2[C@H](C)CC[C@H]2[C@]2(C)O[C@@]1(C(C)C)C[C@H]2NC(=O)CO)c1ccccc1",
    "growth at 10 µM [%]": -24.6
  },
  {
    "smiles_repr": "CC(C)[C@@]12C[C@@H](NC(=O)CO)[C@@](C)(O1)[C@@H]1CC[C@@H](C)[C@H]1[C@@H]2OC(=O)/C=C/C1CCCCC1",
    "growth at 10 µM [%]": 41
  }
]

Annotate the compound `CC(C)[C@@]12C[C@@H](NC(=O)CF)[C@@](C)(O1)[C@@H]1CC[C@@H](C)[C@H]1[C@@H]2OC(=O)/C=C/c1ccccc1` with its measured growth at 10 µM.
83

Annotate the compound `CC(C)[C@@]12C[C@@H](NC(=O)CO)[C@@](C)(O1)[C@@H]1CC[C@@H](C)[C@H]1[C@@H]2OC(=O)/C=C/c1ccccc1` with its measured growth at 10 µM.
-15.2

Annotate the compound `CC(C)[C@@]12C[C@@H](NC(=O)CO)[C@@](C)(O1)[C@@H]1CC[C@@H](C)[C@H]1[C@@H]2OC(=O)c1ccc2ccccc2c1` with its measured growth at 10 µM.
-15.2

Provenance of the data: ChEMBL document CHEMBL3804761
